Assayed System: Cytochrome P450 2C19 (Homo sapiens)
Procedure Summary: qHTS Assay for Inhibitors and Substrates of Cytochrome P450 2C19 (AID 899); also: nearly all actives have a fitted effect of over 60% in size
Assay Context: recombinant CYP2C19, luciferin-H EGE luminescence; series mostly up to 11.4 µM
Inconclusive results are not listed. The source made the active and inactive calls. Calls follow the shape of the dose curve; as a rule, active = well fitted inhibition curve with a large enough effect; inconclusive = small, poorly fitted or top-dose-only effect; inactive = no such curve, though single readings can be large or run the other way.
# output must be one of label 1 (active), label 0 (inactive)

COC(=O)C1=C(C)N(Cc2ccccc2)C2=C3C(=O)N(C)C(=O)C3[C@@](O)(C(=O)OC)C(=O)N2C1c1ccccc1 (some centres not stated) : label 0
COC(=O)NC(c1ccco1)[C@@]1(C(=O)OC)CCCC1=O (some centres not stated) : label 0
CC1(C)Oc2cc3c(cc2O1)OC(C)(C)O3 : label 0
COc1cccc(C2NC(C(=O)O)CCC2C)c1 (configuration not stated) : label 0
CC1CCC2C(=O)OC(CO)CN2C1c1ccc(Br)cc1 (configuration not stated) : label 1
CCC/C=C(\CCC)C(NS(C)(=O)=O)c1ccccc1 (configuration not stated) : label 1

// param item: COC(=O)C1=C(C)N(Cc2ccccc2)[C@]23O[C@](C(=O)OC)(C(=O)N2C1c1ccccc1)C(C(=O)OC)C3C(=O)OC (some centres not stated) ; yields the recorded call
label 0

Please state the recorded outcome for this compound: COc1ccc(C#CC2C=CC(OC(C)=O)C(COC(C)=O)O2)cc1 (configuration not stated)
label 0

Recorded test outcome, item Cc1cc(C)cc(/C=C/C2OCC(O)C2Oc2ccc(C3CCCC3)cc2)c1 (configuration not stated)
label 0

What is the recorded call for this compound in the test? COc1ccc(OC2C(O)COC2/C=C/C#Cc2ccccc2)cc1 (configuration not stated)
label 0

Hello, I am checking results. What call was entered for CCCCCCC1=Cc2cc(OC)c(OC)cc2C(C2(C(=O)OCC)CCCC2=O)O1 (configuration not stated) ?
label 0

Per the records of this test, what outcome belongs to COC(=O)NC(c1ccccc1)[C@@]1(C(=O)OC)CCCC1=O (some centres not stated) ?
label 0

Outcome logged for CCCCCCC1=Cc2cc(OC)c(OC)cc2C(CC(=O)/C=C/OC)O1 (configuration not stated) in this assay:
label 0

Answer briefly: the call reported for `COC(=O)[C@@H]1CC[C@H](C)[C@@H](c2ccc(C)cc2)N1C(=O)c1ccc(/C=N\O[C@@H](C)c2cn([C@H](CO)Cc3ccccc3)nn2)cc1` in this assay.
label 1

Per the assay record, what outcome was assigned to CC(=O)OCC1OC(c2ccc(C(C)=O)cc2)C=CC1OC(C)=O (configuration not stated) ?
label 0

Dear colleague, could you share the recorded outcome for `CCCCCCC(=O)Cc1cc(OC)c(OC)cc1/C=C(/C(C)=O)C(=O)OC` when you have a moment?
label 1

How was C=CCOCC/C=C1/c2ccccc2C(OC)C1C (configuration not stated) classified in this test?
label 1

For `CC(=O)OC[C@@H]1O[C@@H](O/N=C2/C[C@@H](O)[C@@H](O)[C@@H]3[C@@H]4C(=O)N(c5cccc(Oc6ccccc6)c5)C(=O)[C@H]4CC[C@H]23)[C@H](OC(C)=O)[C@H](OC(C)=O)[C@@H]1OC(C)=O` , which call appears in the assay record?
label 0

// return assay outcome for COC(=O)NC(CC(C)=O)c1ccc2c(c1)OCO2 (configuration not stated)
label 0

Could you check what this test reported for C=C(C)C(O)/C=C/c1cccc(OC)c1 (configuration not stated) ?
label 1

# outcome recorded in this test, key = C=CCC1(c2ccccc2)Oc2ccc(C)cc2-c2nc3cc(Cl)c(Cl)cc3nc21 (configuration not stated)
label 0

Identify the outcome logged in this assay for the compound shown: Cc1ccccc1OC1C=CC(C#Cc2ccc(Br)cc2)OC1CO (configuration not stated)
label 0

Which outcome was assigned to COC(=O)NC(c1cccc(C)c1)[C@]1(C(C)=O)CCOC1=O (some centres not stated) in this test?
label 1

Lab log entry: COC(c1ccccc1)C(C)C(OC)C(C)C(OC)C(C)C(C)=O (configuration not stated) — outcome as called in the assay?
label 0
